Source of measurements: ChEMBL document CHEMBL1131475

Experiment: in vivo
Settings: rat, plasma, po
quantity measured: AUC (ng·h/mL)

The following compounds have reported results that may help.
### Prompt Please give measured AUC of the following entry: CC(C)C(NC(=O)OCc1cncc(N)c1)C(=O)N[C@@H](Cc1ccccc1)[C@@H](O)C[C@H](Cc1ccccc1)NC(=O)OCc1cccnc1 (some centres undefined)
### Response 20

### Prompt Please give measured AUC of the following entry: COc1ccc(CN(C)C(=O)NC(C(=O)N[C@@H](Cc2ccccc2)C[C@H](O)[C@H](Cc2ccccc2)NC(=O)OCc2cccnc2)C(C)C)cn1 (some centres undefined)
### Response 320

### Prompt Please give measured AUC of the following entry: CCc1nc(CN(C)C(=O)NC(C(=O)N[C@@H](Cc2ccccc2)[C@@H](O)C[C@H](Cc2ccccc2)NC(=O)OCc2cccnc2)C(C)C)cs1 (some centres undefined)
### Response 870

### Prompt Please give measured AUC of the following entry: CCc1nc(CN(C)C(=O)NC(C(=O)N[C@@H](Cc2ccccc2)C[C@H](O)[C@H](Cc2ccccc2)NC(=O)OCc2cccnc2)C(C)C)cs1 (some centres undefined)
### Response 1050

A = Cc1cccc(CN(C)C(=O)NC(C(=O)N[C@@H](Cc2ccccc2)[C@@H](O)C[C@H](Cc2ccccc2)NC(=O)OCc2cccnc2)C(C)C)n1 (some centres undefined)
B = CCc1nc(CN(C)C(=O)NC(C(=O)N[C@@H](Cc2ccccc2)C[C@H](O)[C@H](Cc2ccccc2)NC(=O)OCc2cncs2)C(C)C)co1 (some centres undefined)
C = Cc1ccc(CN(C)C(=O)NC(C(=O)N[C@@H](Cc2ccccc2)[C@@H](O)C[C@H](Cc2ccccc2)NC(=O)OCc2cccnc2)C(C)C)cn1 (some centres undefined)
D = CCc1ncc(COC(=O)NC(C(=O)N[C@@H](Cc2ccccc2)C[C@H](O)[C@H](Cc2ccccc2)NC(=O)OCc2cccnc2)C(C)C)s1 (some centres undefined)
E = CC(C)c1nc(CN(C)C(=O)NC(C(=O)N[C@@H](Cc2ccccc2)[C@@H](O)C[C@H](Cc2ccccc2)NC(=O)OCc2cccnc2)C(C)C)co1 (some centres undefined)
### Prompt Would you mind ranking these compounds by ascending AUC? API: response body holds the labels in the requested order.
### Response D, E, C, A, B
(D: 10 ng·h/mL, E: 90 ng·h/mL, C: 290 ng·h/mL, A: 950 ng·h/mL, B: 8910 ng·h/mL)

====

Test: in vivo
Conditions: rat, plasma, iv
quantity measured: half-life (min)

The following compounds have reported results that may help.
### Prompt Please give measured half-life of the following entry: COCc1nc(COC(=O)NC(C(=O)N[C@@H](Cc2ccccc2)[C@@H](O)C[C@H](Cc2ccccc2)NC(=O)OCc2cccnc2)C(C)C)cs1 (some centres undefined)
### Response 16.2

### Prompt Please give measured half-life of the following entry: CC(C)C(NC(=O)N(C)Cc1csc(C2CCC2)n1)C(=O)N[C@@H](Cc1ccccc1)C[C@H](O)[C@H](Cc1ccccc1)NC(=O)OCc1cncs1 (some centres undefined)
### Response 24

P = CC(C)C(NC(=O)N(C)Cc1ccccn1)C(=O)N[C@@H](Cc1ccccc1)[C@@H](O)C[C@H](Cc1ccccc1)NC(=O)OCc1cncnc1 (some centres undefined)
Q = Cc1ccc(COC(=O)NC(C(=O)N[C@@H](Cc2ccccc2)[C@@H](O)C[C@H](Cc2ccccc2)NC(=O)OCc2cccnc2)C(C)C)cn1 (some centres undefined)
### Prompt Exercise: compare P and Q ; which one has the greater half-life? Write down the label attached to your selection.
### Response Q
(Q: 34.2 min, P: 21 min)
